# Tested on: DMS 273 small cell lung
# Procedure Summary: NCI tumour cell line growth inhibition, 48 h
Measured Property: TGI (µM)

Molecule | Measured Property | Endpoint Unit | Result Modifier | Result Number
NC(=O)N1N=C2c3ccccc3CC[C@@H]2C1c1ccccc1 (stereo not given in full) | TGI | µM | > | 100
CC1=CC(=O)CCC2(C)C1CC[C@@H]2OC=O (stereo not given in full) | TGI | µM | > | 100
COC(=O)C1=C(C(=O)OC)C2(OC(C)=O)c3ccccc3-c3ccccc3C12 (stereo not given) | TGI | µM | = | 9.61
CCC[CH2][Sn]([CH2]CCC)([O]C(=O)c1cc(F)cc(F)c1)[O]C(=O)c1cc(F)cc(F)c1 | TGI | µM | = | 2.5
COc1nc(SC)nc2c1cnn2C1OC(C(O)CO)C(OC)C1O (stereo not given) | TGI | µM | > | 100
